- Tested on: Vero E6 infected with SARS-CoV-2
- assayText: inhibition of SARS-CoV-2 cytopathic effect; higher = more antiviral protection, active = above 15
- recordedConditions: 10000 nM; 48 h
Counter-ions that a name gives are not always drawn.
# inhibition of SARS-CoV-2 cytopathic effect listing for each entry below
Please respond with the number in % and leave the unit unwritten.

Look over these answered cases.
CN(C)CCCN1c2ccccc2Sc2ccccc21 :: -0.38
O=C1NCN(c2ccccc2)C12CCN(CC1COc3ccccc3O1)CC2 (stereo unspecified) :: 0.38
CC1=C(C(=O)OC2CCCCC2)C(c2ccc([N+](=O)[O-])cc2)C2=C(CC(C)(C)CC2=O)N1 (stereo unspecified) :: 23.1
CCCCNc1cc(C(=O)O)cc(S(N)(=O)=O)c1Oc1ccccc1 [bumetanide] :: 1.07
CC(=O)NCCCOc1ccc(C(=O)N2CCC(N3C(=O)CCc4ccccc43)CC2)cc1 :: 3.15
CCNC(=O)CC[C@H](N)C(=O)O :: -0.81
CCC(CC)[C@H](NC(C)=O)[C@@H]1[C@H](O)[C@@H](C(=O)O)C[C@H]1NC(=N)N :: -0.82
CCCCc1nc(Cl)c(C(=O)O)n1Cc1ccc(-c2ccccc2-c2nn[nH]n2)cc1 :: 0.68

Can you look up the measured inhibition of SARS-CoV-2 cytopathic effect of O=c1[nH]c(=O)n([C@H]2C[C@H](O)[C@@H](CO)O2)cc1Br for me?
0.04

Can you look up the measured inhibition of SARS-CoV-2 cytopathic effect of CC(C)(C)c1cc(C=C(C#N)C#N)cc(Br)c1O for me?
4.93

Can you look up the measured inhibition of SARS-CoV-2 cytopathic effect of COC(=O)c1sccc1S(=O)(=O)Nc1ccc(Nc2ccccc2)cc1OC for me?
8.94

Can you look up the measured inhibition of SARS-CoV-2 cytopathic effect of CC(=O)OC[C@H]1O[C@@H](n2ccc(=O)[nH]c2=O)[C@H](OC(C)=O)[C@@H]1OC(C)=O [uridine-triacetate] for me?
-0.59

Can you look up the measured inhibition of SARS-CoV-2 cytopathic effect of Cc1nc(Nc2ncc(C(=O)Nc3c(C)cccc3Cl)s2)cc(N2CCN(CCO)CC2)n1 for me?
-11.6

Can you look up the measured inhibition of SARS-CoV-2 cytopathic effect of Cc1ccc(Sc2cncc3sc(C(N)=O)cc23)cc1 for me?
4.33

Can you look up the measured inhibition of SARS-CoV-2 cytopathic effect of O=C(O)COc1ccc(OCCNC[C@H](O)COc2ccccc2)cc1 for me?
1.07

Can you look up the measured inhibition of SARS-CoV-2 cytopathic effect of Cc1c(-c2ccccc2)oc2c(C(=O)OCCN3CCCCC3)cccc2c1=O [flavoxate] for me?
0.61

Can you look up the measured inhibition of SARS-CoV-2 cytopathic effect of Cc1oc2ccccc2c1CNC(=O)NCc1cccs1 for me?
3.09

Can you look up the measured inhibition of SARS-CoV-2 cytopathic effect of CNCCc1cnc[nH]1 [N-alpha-methylhistamine-dihydrochloride] for me?
1.37
